Property: EC50 cAMP, DiscoveRx; scope: individual binders
# system name: T1, human VPAC1 receptor (human, UniProt P32241 31-457)
# T1 sequence (looked up): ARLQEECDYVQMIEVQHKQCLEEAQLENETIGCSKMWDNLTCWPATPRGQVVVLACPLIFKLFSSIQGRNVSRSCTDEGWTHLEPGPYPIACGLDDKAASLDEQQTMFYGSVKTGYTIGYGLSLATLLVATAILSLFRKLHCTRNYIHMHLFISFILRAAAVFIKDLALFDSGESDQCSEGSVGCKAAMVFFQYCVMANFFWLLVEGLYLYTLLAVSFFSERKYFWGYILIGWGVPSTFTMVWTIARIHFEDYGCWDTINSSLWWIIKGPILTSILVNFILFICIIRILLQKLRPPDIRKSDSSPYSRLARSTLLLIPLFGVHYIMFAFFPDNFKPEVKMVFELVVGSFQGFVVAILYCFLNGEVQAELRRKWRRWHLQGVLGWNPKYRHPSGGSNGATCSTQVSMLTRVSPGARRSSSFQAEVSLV
# assay notes: cell-based or functional assay
endpoint name: EC50 cAMP, DiscoveRx (nM)

> print(dat)
                                     binder  endpoint.unit  value.observed
1    HSDAVFTDNYTRLRKQVAAKKYLQSIKNKRYC [P37]             nM             6.4
2  HSDFVFTDNYTRLRKQVAAKKYLQSIKNKRYGGPSSGAPPPS [P52]             nM            37.5
3  HSDAVFTDNYTRLRKQVAAKKYLQSIRNKRYGGPSSGAPPPS [P23]             nM             0.9
4  HSDAVFTDNYTRLRKQVAAKKYLQSIKNNRYGGPSSGAPPPS [P75]             nM            0.65
5  HSDWVFTDNYTRLRKQVAAKKYLQSIKNKRYGGPSSGAPPPS [P56]             nM            9.96
6  HSDAVFTDNYTRLRKQVAASKYLQSIKNKRYGGPSSGAPPPS [P21]             nM            10.7
